- Test system: A549
- Assay Remarks: Cytotoxicity against human A549 cells after 48 hrs by SRB assay
- Assay type: functional, cell-based
- Test Context: Homo sapiens, A549, 48 h
Value Type: LC50 (µM)
Answer with a number only, understood to be in µM.

Kindly note the recorded LC50 for C/C=C1\NC(=O)[C@H](Cc2ccccc2)NC(=O)[C@@H](C(C)C)NC(=O)[C@@H]([C@H](C)CC)NC(=O)[C@H](NC(=O)[C@H](NC(=O)[C@H](CCCN)NC(=O)[C@H]2CCCN2C(=O)[C@H](NC(=O)[C@@H](NC(=O)[C@@H](NC(=O)[C@H](NC(=O)CC[C@@H](C)[C@H]2CC[C@H]3[C@@H]4CC[C@@H]5C[C@H](OC(=O)C(F)(F)F)CC[C@]5(C)[C@H]4CC[C@]23C)C(C)C)[C@@H](C)O)C(C)C)C(C)C)[C@H](C)CC)[C@H](C)OC(=O)[C@H](C(C)C)NC1=O , which is 0.851
